- ASSAYED SYSTEM: NHE3 (Homo sapiens, UniProt P48764)
- Construct: expressed in transfected cells
- Sequence (P48764 26-834): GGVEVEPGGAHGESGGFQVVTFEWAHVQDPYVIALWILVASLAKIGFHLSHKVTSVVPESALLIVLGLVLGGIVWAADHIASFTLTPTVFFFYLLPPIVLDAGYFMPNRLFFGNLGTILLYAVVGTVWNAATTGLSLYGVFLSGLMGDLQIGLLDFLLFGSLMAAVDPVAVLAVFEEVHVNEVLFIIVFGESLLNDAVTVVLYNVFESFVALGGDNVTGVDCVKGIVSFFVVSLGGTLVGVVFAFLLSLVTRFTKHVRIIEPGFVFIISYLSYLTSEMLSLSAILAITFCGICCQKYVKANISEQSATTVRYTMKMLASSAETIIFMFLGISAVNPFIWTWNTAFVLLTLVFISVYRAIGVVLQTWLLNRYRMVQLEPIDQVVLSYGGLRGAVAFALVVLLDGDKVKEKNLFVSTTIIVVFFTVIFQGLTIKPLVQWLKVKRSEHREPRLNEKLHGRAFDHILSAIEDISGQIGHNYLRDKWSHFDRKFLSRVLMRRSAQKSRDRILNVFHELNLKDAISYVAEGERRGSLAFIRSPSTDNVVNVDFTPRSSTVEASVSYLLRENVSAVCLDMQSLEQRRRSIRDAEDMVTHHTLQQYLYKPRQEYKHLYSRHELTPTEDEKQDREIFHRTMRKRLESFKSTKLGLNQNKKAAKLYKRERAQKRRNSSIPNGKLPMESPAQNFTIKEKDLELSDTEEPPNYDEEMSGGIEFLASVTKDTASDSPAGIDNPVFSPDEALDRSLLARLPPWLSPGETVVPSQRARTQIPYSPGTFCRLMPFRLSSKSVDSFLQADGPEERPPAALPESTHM
- Sequence (Q99653 2-195 partner limits assumed): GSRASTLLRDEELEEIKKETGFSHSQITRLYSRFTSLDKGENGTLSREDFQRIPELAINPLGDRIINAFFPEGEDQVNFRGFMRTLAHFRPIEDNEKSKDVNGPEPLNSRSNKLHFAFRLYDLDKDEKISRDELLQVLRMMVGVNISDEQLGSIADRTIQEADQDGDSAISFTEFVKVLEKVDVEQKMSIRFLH
- TEST DETAILS: Cell-based assay of NHE-3 activity (pre-incubation inhibition), human
- MEASUREMENT CONTEXT: human Preincubation, 0-30 μM test compound

{"columns": ["MOLECULE", "pIC50"],
 "data": [
  ["Cc1cc(S(=O)(=O)N[C@@H]2CCN(CCOCCNC(=O)NCCCCNC(=O)NCCOCCN3CC[C@@H](NS(=O)(=O)c4ccc(O[C@H]5c6cc(Cl)cc(Cl)c6C[C@@H]5N(C)C)c(C)c4)C3)C2)ccc1O[C@H]1c2cc(Cl)cc(Cl)c2C[C@@H]1N(C)C [Example 53]", "C (NHE3 pIC50 > 7)"],
  ["Cc1cc(S(=O)(=O)NCCOCCOCCNC(=O)NCCCCNC(=O)NCCOCCOCCNS(=O)(=O)c2ccc(O[C@H]3c4cc(Cl)cc(Cl)c4C[C@@H]3N3CCNCC3)c(C)c2)ccc1O[C@H]1c2cc(Cl)cc(Cl)c2C[C@@H]1N1CCNCC1 [Example 32]", "C (NHE3 pIC50 > 7)"],
  ["N#Cc1cc(Cl)cc2c1C[C@H](N1CCNCC1)[C@H]2Oc1ccc(S(=O)(=O)NC2CCN(C(=O)CCCNC(=O)NCCCC(=O)N3CCC(NS(=O)(=O)c4ccc(O[C@H]5c6cc(Cl)cc(C#N)c6C[C@@H]5N5CCNCC5)cc4)CC3)CC2)cc1 [Example 154]", "C (NHE3 pIC50 > 7)"]
]}
